# Tested on: Pseudomonas aeruginosa ATCC 27853
# Experimental protocol: Injectable formulations on mice infected with peritonitis
# Format: in vivo, ICR mice
# Experimental context: 0.2 mg/kg via tail vein, twice a day for 3 days, n = 10
Non-standard residues stand in square brackets, D forms with d. Residues, ends and D or L forms follow the SMILES beside them. dPhe(3,4-F2) = N[C@H](Cc1ccc(F)c(F)c1)C(=O)O; d2Nal = N[C@H](Cc1ccc2ccccc2c1)C(=O)O
// reported Number of mice that died on each day after infection: day 1 for each item listed
Use Mouse as the unit, but write only the number.

The cases that follow already have their Number of mice that died on each day after infection: day 1 on record.
IN: Identify the reported Number of mice that died on each day after infection: day 1 for the following entry. CC(=O)N[C@H](CCCCN)C(=O)N[C@H](CCCCN)C(=O)N[C@H](CC(C)C)C(=O)N[C@H](CC(C)C)C(=O)N[C@H](Cc1ccc(F)c(F)c1)C(=O)N[C@H](CCCNC(=N)N)C(=O)N[C@H](CC(C)C)C(=O)N[C@H](CCCCN)C(=O)N[C@H](Cc1ccc(F)c(F)c1)C(=O)N[C@H](CCCNC(=N)N)C(=O)N[C@H](CCCCN)C(N)=O [LV-25] (Ac-[dK][dK][dL][dL][dPhe(3,4-F2)][dR][dL][dK][dPhe(3,4-F2)][dR][dK]-NH2)
OUT: 2

IN: Identify the reported Number of mice that died on each day after infection: day 1 for the following entry. CC(=O)N[C@H](CCCCN)C(=O)N[C@H](CCCCN)C(=O)N[C@H](CC(C)C)C(=O)N[C@H](CC(C)C)C(=O)N[C@H](Cc1ccc2ccccc2c1)C(=O)N[C@H](CCCCN)C(=O)N[C@H](CC(C)C)C(=O)N[C@H](CCCCN)C(=O)N[C@H](Cc1ccc2ccccc2c1)C(=O)N[C@H](CCCCN)C(=O)N[C@H](CCCCN)C(N)=O [LV-17] (Ac-[dK][dK][dL][dL][d2Nal][dK][dL][dK][d2Nal][dK][dK]-NH2)
OUT: 1

New cases:
IN: Identify the reported Number of mice that died on each day after infection: day 1 for the following entry. CC(=O)N[C@H](CCCNC(=N)N)C(=O)N[C@H](CCCCN)C(=O)N[C@H](CC(C)C)C(=O)N[C@H](CC(C)C)C(=O)N[C@H](Cc1ccc(F)c(F)c1)C(=O)N[C@H](CCCCN)C(=O)N[C@H](CC(C)C)C(=O)N[C@H](CCCCN)C(=O)N[C@H](Cc1ccc(F)c(F)c1)C(=O)N[C@H](CCCCN)C(=O)N[C@H](CCCNC(=N)N)C(N)=O [LV-6] (Ac-[dR][dK][dL][dL][dPhe(3,4-F2)][dK][dL][dK][dPhe(3,4-F2)][dK][dR]-NH2)
OUT: 2

====

# Test system: Pseudomonas aeruginosa ATCC 27853
# Experimental protocol: Injectable formulations on mice infected with peritonitis
# Assay type: in vivo, ICR mice
# Experimental context: 5 mg/kg via tail vein, twice a day for 3 days, n = 10
Non-standard residues stand in square brackets, D forms with d. Residues, ends and D or L forms follow the SMILES beside them. dPhe(3,4-F2) = N[C@H](Cc1ccc(F)c(F)c1)C(=O)O; d2Nal = N[C@H](Cc1ccc2ccccc2c1)C(=O)O
Measurement label: Number of mice that died on each day after infection: day 3 (Mouse)
Use Mouse as the unit, but write only the number.

IN: Identify the reported Number of mice that died on each day after infection: day 3 for the following entry. CC(=O)N[C@H](CCCCN)C(=O)N[C@H](CCCCN)C(=O)N[C@H](CC(C)C)C(=O)N[C@H](CC(C)C)C(=O)N[C@H](Cc1ccc2ccccc2c1)C(=O)N[C@H](CCCNC(=N)N)C(=O)N[C@H](CC(C)C)C(=O)N[C@H](CCCCN)C(=O)N[C@H](Cc1ccc2ccccc2c1)C(=O)N[C@H](CCCNC(=N)N)C(=O)N[C@H](CCCCN)C(N)=O [LV-19] (Ac-[dK][dK][dL][dL][d2Nal][dR][dL][dK][d2Nal][dR][dK]-NH2)
OUT: 2

IN: Identify the reported Number of mice that died on each day after infection: day 3 for the following entry. CC(=O)N[C@H](CCCNC(=N)N)C(=O)N[C@H](CCCCN)C(=O)N[C@H](CC(C)C)C(=O)N[C@H](CC(C)C)C(=O)N[C@H](Cc1ccc2ccccc2c1)C(=O)N[C@H](CCCCN)C(=O)N[C@H](CC(C)C)C(=O)N[C@H](CCCCN)C(=O)N[C@H](Cc1ccc2ccccc2c1)C(=O)N[C@H](CCCCN)C(=O)N[C@H](CCCNC(=N)N)C(N)=O [LV-18] (Ac-[dR][dK][dL][dL][d2Nal][dK][dL][dK][d2Nal][dK][dR]-NH2)
OUT: 1

New cases:
IN: Identify the reported Number of mice that died on each day after infection: day 3 for the following entry. CC(=O)N[C@H](CCCCN)C(=O)N[C@H](CCCCN)C(=O)N[C@H](CC(C)C)C(=O)N[C@H](CC(C)C)C(=O)N[C@H](Cc1ccc(F)c(F)c1)C(=O)N[C@H](CCCNC(=N)N)C(=O)N[C@H](CC(C)C)C(=O)N[C@H](CCCCN)C(=O)N[C@H](Cc1ccc(F)c(F)c1)C(=O)N[C@H](CCCNC(=N)N)C(=O)N[C@H](CCCCN)C(N)=O [LV-25] (Ac-[dK][dK][dL][dL][dPhe(3,4-F2)][dR][dL][dK][dPhe(3,4-F2)][dR][dK]-NH2)
OUT: 0

====

// reported MIC Staphylococcus aureus ATCC 25923 for each item listed
# Tested on: Staphylococcus aureus ATCC 25923
# Type: cell-based
Non-standard residues stand in square brackets, D forms with d. Residues, ends and D or L forms follow the SMILES beside them. dPhe(4-CF3) = N[C@H](Cc1ccc(C(F)(F)F)cc1)C(=O)O; d2Nal = N[C@H](Cc1ccc2ccccc2c1)C(=O)O
Use µg/mL as the unit, but write only the number.

IN: Identify the reported MIC Staphylococcus aureus ATCC 25923 for the following entry. CC(=O)N[C@H](CCCCN)C(=O)N[C@H](CCCCN)C(=O)N[C@H](CC(C)C)C(=O)N[C@H](CC(C)C)C(=O)N[C@H](Cc1ccc2ccccc2c1)C(=O)N[C@H](CCCCN)C(=O)N[C@H](CC(C)C)C(=O)N[C@H](CCCCN)C(=O)N[C@H](Cc1ccc2ccccc2c1)C(=O)N[C@H](CCCCN)C(=O)N[C@H](CCCCN)C(N)=O [LV-17] (Ac-[dK][dK][dL][dL][d2Nal][dK][dL][dK][d2Nal][dK][dK]-NH2)
OUT: 1

IN: Identify the reported MIC Staphylococcus aureus ATCC 25923 for the following entry. CC(=O)N[C@H](CCCCN)C(=O)N[C@H](CCCCN)C(=O)N[C@H](CC(C)C)C(=O)N[C@H](CC(C)C)C(=O)N[C@H](Cc1ccc2ccccc2c1)C(=O)N[C@H](CCCNC(=N)N)C(=O)N[C@H](CC(C)C)C(=O)N[C@H](CCCCN)C(=O)N[C@H](Cc1ccc2ccccc2c1)C(=O)N[C@H](CCCNC(=N)N)C(=O)N[C@H](CCCCN)C(N)=O [LV-19] (Ac-[dK][dK][dL][dL][d2Nal][dR][dL][dK][d2Nal][dR][dK]-NH2)
OUT: 1

Attention now shifts to the item below.
IN: Identify the reported MIC Staphylococcus aureus ATCC 25923 for the following entry. CC(=O)N[C@H](CCCNC(=N)N)C(=O)N[C@H](CCCCN)C(=O)N[C@H](CC(C)C)C(=O)N[C@H](CC(C)C)C(=O)N[C@H](Cc1ccc(C(F)(F)F)cc1)C(=O)N[C@H](CCCCN)C(=O)N[C@H](CC(C)C)C(=O)N[C@H](CCCCN)C(=O)N[C@H](Cc1ccc(C(F)(F)F)cc1)C(=O)N[C@H](CCCCN)C(=O)N[C@H](CCCNC(=N)N)C(N)=O [LV-9] (Ac-[dR][dK][dL][dL][dPhe(4-CF3)][dK][dL][dK][dPhe(4-CF3)][dK][dR]-NH2)
OUT: 2

====

// reported Number of mice that died on each day after infection: day 8 for each item listed
# System: Escherichia coli ATCC 25922
# Experimental protocol: Oral formulations on mice with systemic bacterial infection
# Assay type: in vivo, ICR mice
# Experimental context: 1 mg/kg gavage, three times a day for 7 days, n = 10
Non-standard residues stand in square brackets, D forms with d. Residues, ends and D or L forms follow the SMILES beside them. dPhe(3,4-Cl2) = N[C@H](Cc1ccc(Cl)c(Cl)c1)C(=O)O; dPhe(4-CF3) = N[C@H](Cc1ccc(C(F)(F)F)cc1)C(=O)O; dPhe(4-F) = N[C@H](Cc1ccc(F)cc1)C(=O)O; d2Nal = N[C@H](Cc1ccc2ccccc2c1)C(=O)O
Use Mouse as the unit, but write only the number.

The cases that follow already have their Number of mice that died on each day after infection: day 8 on record.
IN: Please respond with reported Number of mice that died on each day after infection: day 8 (system Escherichia coli ATCC 25922) for CC(=O)N[C@H](CCCNC(=N)N)C(=O)N[C@H](CCCCN)C(=O)N[C@H](CC(C)C)C(=O)N[C@H](CC(C)C)C(=O)N[C@H](Cc1ccc(Cl)c(Cl)c1)C(=O)N[C@H](CCCCN)C(=O)N[C@H](CC(C)C)C(=O)N[C@H](CCCCN)C(=O)N[C@H](Cc1ccc(Cl)c(Cl)c1)C(=O)N[C@H](CCCCN)C(=O)N[C@H](CCCNC(=N)N)C(N)=O [LV-8] (Ac-[dR][dK][dL][dL][dPhe(3,4-Cl2)][dK][dL][dK][dPhe(3,4-Cl2)][dK][dR]-NH2) .
OUT: 0

IN: Please respond with reported Number of mice that died on each day after infection: day 8 (system Escherichia coli ATCC 25922) for CC(=O)N[C@H](CCCNC(=N)N)C(=O)N[C@H](CCCCN)C(=O)N[C@H](CC(C)C)C(=O)N[C@H](CC(C)C)C(=O)N[C@H](Cc1ccc(C(F)(F)F)cc1)C(=O)N[C@H](CCCCN)C(=O)N[C@H](CC(C)C)C(=O)N[C@H](CCCCN)C(=O)N[C@H](Cc1ccc(C(F)(F)F)cc1)C(=O)N[C@H](CCCCN)C(=O)N[C@H](CCCNC(=N)N)C(N)=O [LV-9] (Ac-[dR][dK][dL][dL][dPhe(4-CF3)][dK][dL][dK][dPhe(4-CF3)][dK][dR]-NH2) .
OUT: 0

IN: Please respond with reported Number of mice that died on each day after infection: day 8 (system Escherichia coli ATCC 25922) for CC(=O)N[C@H](CCCNC(=N)N)C(=O)N[C@H](CCCCN)C(=O)N[C@H](CC(C)C)C(=O)N[C@H](CC(C)C)C(=O)N[C@H](Cc1ccc(F)cc1)C(=O)N[C@H](CCCCN)C(=O)N[C@H](CC(C)C)C(=O)N[C@H](CCCCN)C(=O)N[C@H](Cc1ccc(F)cc1)C(=O)N[C@H](CCCCN)C(=O)N[C@H](CCCNC(=N)N)C(N)=O [LV-5] (Ac-[dR][dK][dL][dL][dPhe(4-F)][dK][dL][dK][dPhe(4-F)][dK][dR]-NH2) .
OUT: 0

IN: Please respond with reported Number of mice that died on each day after infection: day 8 (system Escherichia coli ATCC 25922) for CC(=O)N[C@H](CCCNC(=N)N)C(=O)N[C@H](CCCCN)C(=O)N[C@H](CC(C)C)C(=O)N[C@H](CC(C)C)C(=O)N[C@H](Cc1ccc2ccccc2c1)C(=O)N[C@H](CCCNC(=N)N)C(=O)N[C@H](CC(C)C)C(=O)N[C@H](CCCCN)C(=O)N[C@H](Cc1ccc2ccccc2c1)C(=O)N[C@H](CCCNC(=N)N)C(=O)N[C@H](CCCCN)C(N)=O [LV-20] (Ac-[dR][dK][dL][dL][d2Nal][dR][dL][dK][d2Nal][dR][dK]-NH2) .
OUT: 0

Attention now shifts to the item below.
IN: Please respond with reported Number of mice that died on each day after infection: day 8 (system Escherichia coli ATCC 25922) for CC(=O)N[C@H](CCCNC(=N)N)C(=O)N[C@H](CCCCN)C(=O)N[C@@H](C(=O)N[C@@H](C(=O)N[C@H](Cc1ccc2ccccc2c1)C(=O)N[C@H](CCCNC(=N)N)C(=O)N[C@@H](C(=O)N[C@H](CCCCN)C(=O)N[C@H](Cc1ccc2ccccc2c1)C(=O)N[C@H](CCCNC(=N)N)C(=O)N[C@H](CCCCN)C(N)=O)C(C)C)C(C)C)C(C)C [LV-16] (Ac-[dR][dK][dV][dV][d2Nal][dR][dV][dK][d2Nal][dR][dK]-NH2) .
OUT: 2
